For each record, write down the corresponding pEC50.
- Assayed target: T1, Human DLL3 expressed on cells (HEK293T-hDLL3, NCI-H82, SHP-77, MC38-hDLL3) (human, UniProt Q9NYJ7 27-618)
- T1 construct: also called DLL3 endogenously expressed on human cells
- T1 sequence: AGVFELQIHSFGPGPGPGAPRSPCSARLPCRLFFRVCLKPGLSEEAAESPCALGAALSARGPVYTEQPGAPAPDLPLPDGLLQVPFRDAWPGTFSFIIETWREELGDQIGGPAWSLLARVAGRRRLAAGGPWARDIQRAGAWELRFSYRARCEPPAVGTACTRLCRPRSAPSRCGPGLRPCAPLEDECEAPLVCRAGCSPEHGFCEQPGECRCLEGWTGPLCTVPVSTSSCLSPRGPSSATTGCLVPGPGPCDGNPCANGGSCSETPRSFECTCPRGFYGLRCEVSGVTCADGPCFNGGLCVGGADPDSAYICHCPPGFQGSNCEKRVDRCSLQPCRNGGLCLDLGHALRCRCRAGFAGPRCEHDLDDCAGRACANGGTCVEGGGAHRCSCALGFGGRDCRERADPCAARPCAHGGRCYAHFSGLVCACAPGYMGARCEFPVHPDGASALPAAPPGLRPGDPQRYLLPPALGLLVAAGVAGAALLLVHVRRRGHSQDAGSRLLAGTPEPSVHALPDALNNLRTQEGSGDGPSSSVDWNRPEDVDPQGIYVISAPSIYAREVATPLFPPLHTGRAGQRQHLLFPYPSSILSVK
- Experimental protocol: flow cytometry titration on HEK293T-hDLL3 cells, without HSA
The meaning of pEC50 here: minus log10 of the concentration in molar units.

Look at this binder and give its reported pEC50. MAM120 (single domain ankyrin repeat protein, His-tagged) (designed binder, also called 1D DARPin; not shown: His-tag) DLGTKLLSAAADGQDDEVRELLQAGADVNAKDLFGYTPLHLAAWRGHLEIVEVLLEAGADVNAKDAAGLTPLHLAAWFGHLEIVEVLLEAGADVNAQDVQGVTPADLAAKEGHEDIAEVLQQAA
8.15

Looking for the measured pEC50 of MAM283 (two domain ankyrin repeat protein, N-terminal His6-TEV tag) (designed binder, also called 2D DARPin) MRGSHHHHHHENLYFQDLGKKLLEAARAGQDDEVRELLKAGADVNAKDYFSHTPLHLAARNGHLKIVEVLLKAGADVNAKDFAGKTPLHLAADAGHLEIVEVLLKAGADVNAQDIFGKTPADIAADAGHEDIAEVLQKAAGSPTPTPTTPTPTPTTPTPTPTGSDLGKKLLAAAADGQDDEVRELLQAGADVNAKDLFGYTPLHLAAWRGHLEIVEVLLEAGADVNAKDAAGETPLHLAAWFGHLEIVEVLLEAGADVNAQDVQGKTPADLAAKEGHEDIAEVLQQAA , can you help?
7.66

Endpoint output: pEC50 of MAM112 (single domain ankyrin repeat protein, His-tagged) (designed binder, also called 1D DARPin; not shown: His-tag) DLGKKLLAAAADGQDDEVRELLQAGADVNAKDLFGYTPLHLAAWRGHLEIVEVLLEAGADVNAKDAAGETPLHLAAWFGHLEIVEVLLEAGADVNAQDVQGKTPADLAAKEGHEDIAEVLQQAA . Value?
8.38

Source of measurements: patent US20250332297A1
